molecules and their reported MIC
- Test system: Mannheimia haemolytica MH 6357 (M7/2, reference strain, cattle infection strain)
- ASSAY_COMMENT: MIC, broth-microdilution (CLSI VET01-A4)
- Type: cell-based
- CONDITION_SUMMARY: strain MH 6357

# MOLECULE, EXPERIMENTAL_TARGET, MIC / µg/mL
measured = [
    ("CC(C)(N)C(NC(=O)c1ccc(C#Cc2ccc(CNCc3ccncc3)cc2)cc1)C(=O)NO (stereo not drawn) [C. 320]", "Mannheimia haemolytica MH 6357 (M7/2, reference strain, cattle infection strain)", 0.5),
    ("CCCNCc1ccc(C#Cc2ccc(C(=O)N[C@H](C(=O)NO)[C@@H](C)O)cc2)cc1 [C. 251]", "Mannheimia haemolytica MH 6357 (M7/2, reference strain, cattle infection strain)", 2),
    ("COCCNCc1ccc(C#Cc2ccc(C(=O)N[C@H](C(=O)NO)[C@@H](C)O)cc2)s1 [C. 189]", "Mannheimia haemolytica MH 6357 (M7/2, reference strain, cattle infection strain)", 0.5),
    ("C[C@@H](O)[C@H](NC(=O)c1ccc(C#Cc2ccc(CNCC(F)(F)F)cc2)cc1)C(=O)NO [C. 467]", "Mannheimia haemolytica MH 6357 (M7/2, reference strain, cattle infection strain)", 0.125),
    ("CC(C)(N)C(NC(=O)c1ccc(C#Cc2ccc(CNC3CC3)cc2)cc1)C(=O)NO (stereo not drawn) [C. 329]", "Mannheimia haemolytica MH 6357 (M7/2, reference strain, cattle infection strain)", 0.5),
    ("COCCNCc1ccc(C#Cc2ccc(C(=O)N[C@H](C(=O)NO)[C@@H](C)O)cc2)cc1 [C. 231]", "Mannheimia haemolytica MH 6357 (M7/2, reference strain, cattle infection strain)", 0.5),
]

----------
- System: 40 isolates of Mannheimia (M.) haemolytica
- ASSAY_COMMENT: MIC50/MIC90, broth-microdilution, European respiratory tract isolates
- Assay type: cell-based

# COMPOUND, MIC90 [µg/mL]
measured = [
    ("CC(C)(N)C(NC(=O)c1ccc(C#Cc2ccc(CNC3CC3)cc2)cc1)C(=O)NO (stereo not drawn)", 1),
    ("COCCNCc1ccc(C#Cc2ccc(C(=O)N[C@H](C(=O)NO)[C@@H](C)O)cc2)s1", 0.5),
    ("CC(C)(N)C(NC(=O)c1ccc(C#Cc2ccc(CNCc3ccncc3)cc2)cc1)C(=O)NO (stereo not drawn)", 0.5),
    ("C[C@@H](O)[C@H](NC(=O)c1ccc(C#Cc2ccc(CNCC(F)(F)F)cc2)cc1)C(=O)NO", 0.063),
    ("CCCNCc1ccc(C#Cc2ccc(C(=O)N[C@H](C(=O)NO)[C@@H](C)O)cc2)cc1", 1),
    ("COCCNCc1ccc(C#Cc2ccc(C(=O)N[C@H](C(=O)NO)[C@@H](C)O)cc2)cc1", 1),
]

----------
- Test system: 20 isolates of Bordetella (B.) bronchiseptica
- ASSAY_COMMENT: MIC50/MIC90, broth-microdilution, European respiratory tract isolates
- Type: cell-based

# COMPOUND, MIC90
data = [
    ("COCCNCc1ccc(C#Cc2ccc(C(=O)N[C@H](C(=O)NO)[C@@H](C)O)cc2)cc1", ">16 µg/mL"),
    ("C[C@@H](O)[C@H](NC(=O)c1ccc(C#Cc2ccc(CNCC(F)(F)F)cc2)cc1)C(=O)NO", "2 µg/mL"),
    ("CC(C)(N)C(NC(=O)c1ccc(C#Cc2ccc(CNC3CC3)cc2)cc1)C(=O)NO (stereo not drawn)", "4 µg/mL"),
    ("CCCNCc1ccc(C#Cc2ccc(C(=O)N[C@H](C(=O)NO)[C@@H](C)O)cc2)cc1", ">16 µg/mL"),
    ("CC(C)(N)C(NC(=O)c1ccc(C#Cc2ccc(CNCc3ccncc3)cc2)cc1)C(=O)NO (stereo not drawn)", "2 µg/mL"),
    ("COCCNCc1ccc(C#Cc2ccc(C(=O)N[C@H](C(=O)NO)[C@@H](C)O)cc2)s1", ">16 µg/mL"),
]

----------
- System: Acinetobacter baumanii AB 15919 (IV369-2012, dermatitis field isolate)
- ASSAY_COMMENT: MIC, broth-microdilution (CLSI VET01-A4)
- Assay type: cell-based
- CONDITION_SUMMARY: strain AB 15919
- Procedure: The Minimum inhibitory concentrations (MIC) of compounds according to the invention were determined by the broth-microdilution method according to CLSI document VET01-A4. Microdilution trays containing a doubling dilution series of the test compound were used for the tests. The MIC results were interpreted according to the CLSI documents VET01-S3. The lowest concentration of compound at which no visible growth (i.e. no turbidity) detected by the unaided eye was recorded as the MIC.

# COMPOUND, MIC
records = [
    ("CC(C)(N)C(NC(=O)c1ccc(C#Cc2ccc(CNCc3ccncc3)cc2)cc1)C(=O)NO (stereo not drawn) [C. 320]", "16 µg/mL"),
    ("C[C@@H](O)[C@H](NC(=O)c1ccc(C#Cc2ccc(CNCC(F)(F)F)cc2)cc1)C(=O)NO [C. 467]", ">16 µg/mL"),
    ("CCCNCc1ccc(C#Cc2ccc(C(=O)N[C@H](C(=O)NO)[C@@H](C)O)cc2)cc1 [C. 251]", ">16 µg/mL"),
    ("COCCNCc1ccc(C#Cc2ccc(C(=O)N[C@H](C(=O)NO)[C@@H](C)O)cc2)s1 [C. 189]", ">16 µg/mL"),
    ("COCCNCc1ccc(C#Cc2ccc(C(=O)N[C@H](C(=O)NO)[C@@H](C)O)cc2)cc1 [C. 231]", ">16 µg/mL"),
    ("CC(C)(N)C(NC(=O)c1ccc(C#Cc2ccc(CNC3CC3)cc2)cc1)C(=O)NO (stereo not drawn) [C. 329]", "16 µg/mL"),
]

----------
compounds and their reported MIC50
- Tested on: 20 isolates of Histophilus (H.) somni
- ASSAY_COMMENT: MIC50/MIC90, broth-microdilution, European respiratory tract isolates
- Format: cell-based

# COMPOUND, MIC50
records = [
    ("CCCNCc1ccc(C#Cc2ccc(C(=O)N[C@H](C(=O)NO)[C@@H](C)O)cc2)cc1 [C. 251]", "0.125 µg/mL"),
    ("CC(C)(N)C(NC(=O)c1ccc(C#Cc2ccc(CNCc3ccncc3)cc2)cc1)C(=O)NO (stereo not drawn) [C. 320]", "0.063 µg/mL"),
    ("C[C@@H](O)[C@H](NC(=O)c1ccc(C#Cc2ccc(CNCC(F)(F)F)cc2)cc1)C(=O)NO [C. 467]", "≤0.016 µg/mL"),
    ("CC(C)(N)C(NC(=O)c1ccc(C#Cc2ccc(CNC3CC3)cc2)cc1)C(=O)NO (stereo not drawn) [C. 329]", "0.25 µg/mL"),
    ("COCCNCc1ccc(C#Cc2ccc(C(=O)N[C@H](C(=O)NO)[C@@H](C)O)cc2)cc1 [C. 231]", "0.125 µg/mL"),
    ("COCCNCc1ccc(C#Cc2ccc(C(=O)N[C@H](C(=O)NO)[C@@H](C)O)cc2)s1 [C. 189]", "0.032 µg/mL"),
]

----------
- Tested on: 40 isolates of Mannheimia (M.) haemolytica
- ASSAY_COMMENT: MIC50/MIC90, broth-microdilution, European respiratory tract isolates
- Assay type: cell-based
compounds and their reported MIC50

# COMPOUND, MIC50, µg/mL
records = [
    ("CC(C)(N)C(NC(=O)c1ccc(C#Cc2ccc(CNC3CC3)cc2)cc1)C(=O)NO (stereo not drawn)", 0.5),
    ("CCCNCc1ccc(C#Cc2ccc(C(=O)N[C@H](C(=O)NO)[C@@H](C)O)cc2)cc1", 1),
    ("COCCNCc1ccc(C#Cc2ccc(C(=O)N[C@H](C(=O)NO)[C@@H](C)O)cc2)s1", 0.25),
    ("CC(C)(N)C(NC(=O)c1ccc(C#Cc2ccc(CNCc3ccncc3)cc2)cc1)C(=O)NO (stereo not drawn)", 0.5),
    ("COCCNCc1ccc(C#Cc2ccc(C(=O)N[C@H](C(=O)NO)[C@@H](C)O)cc2)cc1", 0.5),
    ("C[C@@H](O)[C@H](NC(=O)c1ccc(C#Cc2ccc(CNCC(F)(F)F)cc2)cc1)C(=O)NO", 0.032),
]

----------
molecules and their reported MIC50
- System: 20 isolates of Actinobacillus (A.) pleuropneumoniae
- ASSAY_COMMENT: MIC50/MIC90, broth-microdilution, European respiratory tract isolates
- Format: cell-based
MEASURED_METRIC: MIC50

# MOLECULE, OBSERVED
measured = [
    ("COCCNCc1ccc(C#Cc2ccc(C(=O)N[C@H](C(=O)NO)[C@@H](C)O)cc2)s1", "0.25 µg/mL"),
    ("COCCNCc1ccc(C#Cc2ccc(C(=O)N[C@H](C(=O)NO)[C@@H](C)O)cc2)cc1", "0.25 µg/mL"),
    ("C[C@@H](O)[C@H](NC(=O)c1ccc(C#Cc2ccc(CNCC(F)(F)F)cc2)cc1)C(=O)NO", "0.032 µg/mL"),
    ("CC(C)(N)C(NC(=O)c1ccc(C#Cc2ccc(CNC3CC3)cc2)cc1)C(=O)NO (stereo not drawn)", "0.5 µg/mL"),
    ("CC(C)(N)C(NC(=O)c1ccc(C#Cc2ccc(CNCc3ccncc3)cc2)cc1)C(=O)NO (stereo not drawn)", "0.5 µg/mL"),
    ("CCCNCc1ccc(C#Cc2ccc(C(=O)N[C@H](C(=O)NO)[C@@H](C)O)cc2)cc1", "0.25 µg/mL"),
]
